# ASSAY SYSTEM: Ribosomal protein S6 kinase alpha-2 (Homo sapiens, UniProt Q15349)
# Sequence (Q15349 whole entry): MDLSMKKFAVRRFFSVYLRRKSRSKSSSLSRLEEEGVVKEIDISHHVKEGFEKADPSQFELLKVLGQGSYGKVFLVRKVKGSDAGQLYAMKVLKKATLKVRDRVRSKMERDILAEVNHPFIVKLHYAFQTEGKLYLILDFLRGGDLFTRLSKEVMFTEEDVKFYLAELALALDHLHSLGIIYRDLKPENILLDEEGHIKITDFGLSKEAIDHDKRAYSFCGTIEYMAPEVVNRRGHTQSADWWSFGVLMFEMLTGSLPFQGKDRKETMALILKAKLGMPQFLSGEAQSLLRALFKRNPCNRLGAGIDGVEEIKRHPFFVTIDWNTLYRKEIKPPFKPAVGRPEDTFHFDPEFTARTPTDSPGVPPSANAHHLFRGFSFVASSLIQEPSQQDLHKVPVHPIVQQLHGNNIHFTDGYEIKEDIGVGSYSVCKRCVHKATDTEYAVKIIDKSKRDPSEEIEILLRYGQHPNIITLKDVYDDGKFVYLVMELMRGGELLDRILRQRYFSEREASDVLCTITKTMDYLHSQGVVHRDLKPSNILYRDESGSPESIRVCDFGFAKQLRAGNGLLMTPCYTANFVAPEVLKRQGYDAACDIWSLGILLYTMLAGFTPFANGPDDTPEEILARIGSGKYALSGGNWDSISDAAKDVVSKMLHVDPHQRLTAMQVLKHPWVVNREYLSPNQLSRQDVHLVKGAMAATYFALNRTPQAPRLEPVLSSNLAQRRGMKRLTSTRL
# EXPERIMENT SUMMARY: Inhibition of RPS6KA2 (unknown origin)
PARAMETER: IC50

Q. What does the data say about its IC50? Entry: COc1ncc(F)cc1CNc1ccc(Cc2c[nH]c3ncc(C)cc23)c(F)n1 [PLX-5622]
A. > 1000 nM

----------
# ASSAY SYSTEM: Calcium/calmodulin-dependent protein kinase type II subunit beta (Homo sapiens)
# Sequence (Q13554 whole entry): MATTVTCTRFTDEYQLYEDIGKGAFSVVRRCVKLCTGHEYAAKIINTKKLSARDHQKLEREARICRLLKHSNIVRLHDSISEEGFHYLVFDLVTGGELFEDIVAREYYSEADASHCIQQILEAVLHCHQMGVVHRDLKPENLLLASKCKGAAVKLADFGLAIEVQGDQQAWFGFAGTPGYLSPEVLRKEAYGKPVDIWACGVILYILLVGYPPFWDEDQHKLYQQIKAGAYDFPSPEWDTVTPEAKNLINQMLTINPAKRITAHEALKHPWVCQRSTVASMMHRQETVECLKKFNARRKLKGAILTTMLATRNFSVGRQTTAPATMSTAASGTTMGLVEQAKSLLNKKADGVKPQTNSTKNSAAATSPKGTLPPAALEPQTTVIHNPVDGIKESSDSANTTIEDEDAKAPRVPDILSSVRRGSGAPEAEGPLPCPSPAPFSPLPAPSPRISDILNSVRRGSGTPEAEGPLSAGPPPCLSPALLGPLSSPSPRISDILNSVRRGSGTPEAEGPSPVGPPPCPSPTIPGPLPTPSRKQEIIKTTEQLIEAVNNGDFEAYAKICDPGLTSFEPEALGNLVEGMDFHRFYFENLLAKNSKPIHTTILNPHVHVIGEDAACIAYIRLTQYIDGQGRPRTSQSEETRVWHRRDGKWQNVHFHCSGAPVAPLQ
# EXPERIMENT SUMMARY: Inhibition of CAMK2B (unknown origin)
pIC50: −log10 of the molar value.
PARAMETER: pIC50

Q. What does the data say about its pIC50? Entry: COc1ncc(F)cc1CNc1ccc(Cc2c[nH]c3ncc(C)cc23)c(F)n1
A. < 6.00

The measurements presented in this section are drawn from ChEMBL document CHEMBL5649170.
